Listed here are compounds together with their documented fold change.
- measurement.description: viability loss with induced miR-34 in A549 – imaging, A549 dox-inducible miR-34, nuclei and caspase counts, primary screen (AID 1347080)
- run.conditions: A549 miR-34 inducible, Hoechst nuclei count, 48 h; measured here: relative caspase fold change +Dox/-Dox

compound	fold change
Cn1cc(-c2ccc3c(c2)CCN3C(=O)Cc2cccc(C(F)(F)F)c2)c2c(N)ncnc21	0.484
CC(C)=CCC/C(C)=C/CC/C(C)=C/CC[C@]1(C)CCc2cc(O)c(C)c(C)c2O1	0.749
CCCCCCCCCCCCCCCC(=O)N[C@H]1CCOC1=O	1.15
[O-]/[N+](=N/O[C@@H]1O[C@H](CO)[C@H](O)[C@H](O)[C@H]1O)N1CCCC1	0.427
COc1ccc2[nH]c(I)c(CCNC(C)=O)c2c1	0.922
O=C(Nc1ccc(OC(F)(F)F)cc1)c1sccc1NCc1ccnc2ccccc12	1.05
O=C(Nc1cccnc1)N1CCC(Cc2cccc(Oc3ccc(C(F)(F)F)cn3)c2)CC1	0.837
CC(C)NCC(O)COc1ccccc1-n1cccc1 (centres undefined)	0.992
CCCCCCCCCCCCC/C=C/[C@@H](O)[C@H](CO)NC(=O)CCCCC	0.834
CNC(=O)[C@@H](Cc1ccccc1)N(C)C(=O)[C@@H](Cc1ccc2ccccc2c1)N(C)C(=O)/C=C/CC(C)(C)N	0.957
Nc1nc2[nH]c(=O)[nH]c2c(=O)[nH]1	0.746
C=CC(=O)Nc1cccc(Nc2nc(Nc3ccc(NC4CN(CCF)C4)cc3OC)ncc2C(F)(F)F)c1	0.345
COc1cc(NC(=O)c2ccc(-c3ccc(Cl)cc3)o2)cc(OC)c1	0.756
COc1ccc(C2CC(c3c(O)cc(C)oc3=O)=NCCS2)c(OC)c1 (centres undefined)	2.3
CC(=O)O[C@@H]1C[C@H]2C(C)(C)C(=O)C=C[C@]2(C)[C@H]2CC[C@@]3(C)[C@H](c4ccoc4)OC(=O)[C@H]4O[C@]43[C@@]21C	1.22
O[C@@H]1[C@H](O)[C@@H](CCl)O[C@H]1n1cnc2c(NC3CC4CCC3C4)ncnc21 (some centres undefined)	1.85
NC(=NC1C2CC3CC(C2)CC1C3)Nc1ccc(I)cc1 (centres undefined)	0.649
CCCCC/C=C\C/C=C\CCCCCCCC(=O)O[C@H](COC(=O)CCCCCCCCCCCCCCC)COP(=O)(O)OCCN	0.779
CC(C)n1c(/C=C/[C@H](O)C[C@H](O)CC(=O)O)c(-c2ccc(F)cc2)c2ccccc21	0.873
c1ccc(COCCCc2cnc[nH]2)cc1	2.69
CCCCC[C@H](O)/C=C/[C@H]1C(=O)C[C@H](O)[C@@H]1C/C=C/CCCC(=O)O	1.11
CCc1cc(C2NNC(C)C2c2ccc3c(c2)OCCO3)c(O)cc1O (centres undefined)	1.27
CCCCC/C=C\C/C=C\CCCC/C=C\CCCC(=O)O	0.344
CN	0.984
C=CC(=O)Nc1cccc(Nc2nc(Nc3ccc(N4CCN(C(C)=O)CC4)cc3OC)ncc2C(F)(F)F)c1	0.348
COc1cc(COc2cc(N)c(Cl)cc2C(=O)CCC2CCN(CCNS(C)(=O)=O)CC2)cc(OC)c1	1.5
CCCCCCCOC(=O)Cc1c(C)n(C(=O)c2ccc(Cl)cc2)c2ccc(OC)cc12	0.801
Cc1cc(C)c2c(c1)[C@@H](N(Cc1cc(C(F)(F)F)cc(C(F)(F)F)c1)c1nnn(C)n1)CCCN2CC1CCC(C(=O)O)CC1 (some centres undefined)	0.636
C=CCNC(=O)c1cc([N+](=O)[O-])cc2c(=O)[nH]c(Nc3ccc(Cl)c(Cl)c3)nc12	0.827
CCCCCC/C=C\CCCCCCCC(=O)OCC	1.03
O=C(O)CCC/C=C\C[C@H]1[C@@H](O)CC(=O)[C@@H]1/C=C/[C@@H](O)CCc1ccccc1	1.03
Cn1cnc2c(F)c(Nc3ccc(Br)cc3F)c(C(=O)NOCCO)cc21	0.664
NC(=O)C1CCCc2c1[nH]c1ccc(Cl)cc21 (centres undefined)	0.695
CCCCC(C)(O)C/C=C/[C@H]1[C@H](O)CC(=O)[C@H]1CCCCCCC(=O)OC (some centres undefined)	1.88

###

- measurement.description: drug combination growth inhibition, ovarian cancer – cell-based, oncology-focused library, rucaparib conditional, profiling panel (AID 1508598)
- run.conditions: patient-derived ovarian cancer cells, CellTiter-Glo viability, 144 h; at 0.00122 µM; OCI-P5x cells; with rucaparib 20 µM; 100% = cells with rucaparib alone
The source made the active and inactive calls.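 How the source made its calls: active means normalized viability below 100% at a tested concentration; inactive means the rest.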
Labels: active, inactive

substance.smiles	category
CN1CCC(CNc2ccc3ncc(-c4cccc(OC(F)(F)F)c4)n3n2)CC1	inactive
COc1cc(Nc2ncc3c(n2)-c2ccc(Cl)cc2C(c2c(F)cccc2OC)=NC3)ccc1C(=O)O	inactive
CN(c1ncccc1CNc1nc(Nc2ccc3c(c2)CC(=O)N3)ncc1C(F)(F)F)S(C)(=O)=O	inactive
CCNC(=O)c1noc(-c2cc(C(C)C)c(O)cc2O)c1-c1ccc(CN2CCOCC2)cc1	active
CCOc1cc(N2CCC(O)CC2)ccc1Nc1ncc2c(n1)N(C)c1ccccc1C(=O)N2C	active
COc1cc(Nc2ncc(F)c(Nc3ccc4c(n3)NC(=O)C(C)(C)O4)n2)cc(OC)c1OC	active

###

- measurement.description: viability loss with induced miR-34 in A549 – imaging, A549 dox-inducible miR-34, nuclei and caspase counts, primary screen (AID 1347080)
- run.conditions: A549 miR-34 inducible, Hoechst nuclei count, 48 h; measured here: total cells without miR-34 induction

compound	cell count
C=CC(=O)Nc1cccc(Nc2nc(Nc3ccc(Oc4ccnc(C(=O)NC)c4)cc3)ncc2F)c1	4430
CNC(=O)[C@@H](Cc1ccccc1)N(C)C(=O)[C@@H](Cc1ccc2ccccc2c1)N(C)C(=O)/C=C/CC(C)(C)N	9170
C#CCN1C(C)=C(C(=O)OC)C(c2cccc([N+](=O)[O-])c2)C(C(=O)OCC)=C1C (stereo not drawn)	7490
CC(=O)N[C@H](Cc1c[nH]c2ccccc12)C(=O)OCc1cc(C(F)(F)F)cc(C(F)(F)F)c1	8790
Cc1ccc(OC[C@@H](O)[C@H](C)NC(C)C)c2c1CCC2	8800
O=C(Nc1cccc(C(F)(F)F)c1)Nc1cc(S(=O)(=O)NC2CC2)ccc1-c1ccsc1	7200
CC/C=C\C/C=C\C/C=C\C/C=C\CCCCC(=O)O	6540
Cc1c(NC(=O)c2ccc(C(C)(C)C)cc2)cccc1-c1cn(C)c(=O)c(Nc2ccc(C(=O)N3CCOCC3)cc2)n1	4900

###

- measurement.description: viability loss in pontine glioma line – cell-based, SU-DIPG-XXV, MIPE5.0, CellTiter-Glo, qHTS, dose response (AID 1347065);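 note: cells exposed to compound for 48 hours before ATP readout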
- run.conditions: CellTiter-Glo ATP luminescence
Records with an inconclusive call do not appear. The source made the active and inactive calls. No cut-off is given here; in the data, nearly all actives have AC50 up to about 26 µM.
Labels: t for active, f for inactive

molecule	category
Cc1ccc(-n2c(C)cc(-c3nnc4n3CCCCC4)c2C)cc1	t
COCCOc1cnc2ccn([C@H](C)c3nnc4c(F)cc(-c5cnn(C)c5)cn34)c(=O)c2c1	f
CCOc1cc2ncc(C#N)c(Nc3ccc(OCc4ccccn4)c(Cl)c3)c2cc1NC(=O)/C=C/CN(C)C	t
N#Cc1ccc(Oc2ccc3c(c2)COB3O)cc1	f
CCN1CCN(CC(=O)Nc2ccc(-c3cccc4c(=O)cc(N5CCOCC5)oc34)c3sc4ccccc4c23)CC1	t
Cc1ccc(NC(=O)NCc2ccc3c(c2)CN(C2CCC(=O)NC2=O)C3=O)cc1Cl (stereo not drawn)	t
CC(C)CC(=O)Nc1n[nH]c2c1CN(C(=O)C1CCN(C)CC1)C2(C)C	t
Cc1ccc(NC(=O)c2ccc(CN3CCNCC3)cc2)cc1Nc1nccc(-c2cccnc2)n1	t
Cc1ccc(NC(=O)Nc2cc(C(F)(F)F)ccc2F)cc1Nc1ccc2c(c1)NC(=O)/C2=C\c1ccc[nH]1	t
C=CCN1C[C@H](C(=O)N(CCCN(C)C)C(=O)NCC)CC2c3cccc4[nH]cc(c34)C[C@H]21 (stereo partly drawn)	f
c1ccc(-c2ccc(CNc3nc(-c4ccccn4)nnc3-c3ccccc3)cc2)cc1	t
CC[C@H](NC(=O)[C@H](C)NC)C(=O)N1C[C@@H](O)C[C@H]1Cc1c(-c2[nH]c3cc(F)ccc3c2C[C@@H]2C[C@H](O)CN2C(=O)[C@H](CC)NC(=O)[C@H](C)NC)[nH]c2cc(F)ccc12	f
CS(=O)(=O)N1CCN(Cc2cc3nc(-c4cccc5[nH]ncc45)nc(N4CCOCC4)c3s2)CC1	t
CC(C)n1ncnc1-c1cn2c(n1)-c1ccc(O[C@@H](C)C(N)=O)cc1OCC2	t
COc1cc2nc(-c3cc(F)ccc3O)nc(N[C@@H]3CNC[C@H]3C(C)(C)O)c2cc1OC	t
N=C(N)c1ccc2nc(-c3cc(CC(=O)N[C@@H](CC(=O)O)C(=O)O)cc(-c4cc(S(N)(=O)=O)ccc4O)c3O)[nH]c2c1	f
CCc1cc2c(c(OCC(F)(F)F)c(C(=O)NC3CCN(C(=O)CO)CC3)n2C)c(=O)n1CC(=O)c1ccccc1	f
CC(=O)Nc1ccc(C(=O)Nc2ccccc2N)cc1	t
O=C(Cc1ccc(-c2ccc(OCCN3CCOCC3)cc2)cn1)NCc1ccccc1	t
NC(=O)c1c(OCc2c(F)cc(Br)cc2F)nsc1NC(=O)NCCCCN1CCCC1	t
Cc1ccc(S(=O)(=O)Nc2cc(Cl)ccc2C(=O)Nc2nc(-c3ccccc3)cs2)cc1	t
Cc1cc(-c2cc(OC(=O)c3ccccc3)ccc2Cl)cc2nnc(Nc3ccc(OCCN4CCCC4)cc3)nc12	t
COC1=C2C[C@H](C)C[C@H](OC)[C@H](O)[C@@H](C)/C=C(/C)[C@H](OC(N)=O)[C@@H](OC)/C=C\C=C(\C)C(=O)NC(=CC1=O)C2=O	t
